# tgt: biotinylated labeled human GPC3 protein (produced in-house) (human, UniProt P51654 25-559, limits assumed, biotinylated (Dojindo, Cat. No. LK03); sites not stated)
# experiment: ELISA, biotinylated human GPC3 protein
observation.type: OD450 at 0.11 nM (OD450)
Just the number in OD450, nothing appended.

The following binders have reported results that may help.
{"columns": ["binder", "observed.value"],
 "data": [
  ["hAb005LH2L1 (antibody, human IgG1, V domains shown, Humanized F3.54.12; VH H2 + VL L1; expressed as human IgG1) VH: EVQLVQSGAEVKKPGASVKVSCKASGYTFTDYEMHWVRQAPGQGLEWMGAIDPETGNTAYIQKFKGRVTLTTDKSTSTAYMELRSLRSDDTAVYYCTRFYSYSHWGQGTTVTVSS VL: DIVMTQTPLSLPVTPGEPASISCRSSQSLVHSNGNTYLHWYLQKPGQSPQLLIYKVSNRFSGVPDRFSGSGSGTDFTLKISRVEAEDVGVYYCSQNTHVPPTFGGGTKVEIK", 0.812],
  ["hAb006LH2L1a (antibody, human IgG1, V domains shown, Humanized F3.38.7; VH H2 + VL L1a; expressed as human IgG1) VH: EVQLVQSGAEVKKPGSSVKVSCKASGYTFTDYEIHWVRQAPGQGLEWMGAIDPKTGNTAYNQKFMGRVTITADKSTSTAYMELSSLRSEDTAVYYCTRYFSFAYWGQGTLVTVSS VL: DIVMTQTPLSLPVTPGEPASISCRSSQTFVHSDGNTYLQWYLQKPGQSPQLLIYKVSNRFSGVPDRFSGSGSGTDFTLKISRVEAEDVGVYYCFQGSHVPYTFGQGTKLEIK", 0.139]
]}

Prompt line: // query OD450 at 0.11 nM value for entry hAb005LH2L1a (antibody, human IgG1, V domains shown, Humanized F3.54.12; VH H2 + VL L1a; expressed as human IgG1) VH: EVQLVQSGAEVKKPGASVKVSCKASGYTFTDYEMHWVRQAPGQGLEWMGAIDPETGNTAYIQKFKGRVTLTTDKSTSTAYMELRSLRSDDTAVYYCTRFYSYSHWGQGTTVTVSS VL: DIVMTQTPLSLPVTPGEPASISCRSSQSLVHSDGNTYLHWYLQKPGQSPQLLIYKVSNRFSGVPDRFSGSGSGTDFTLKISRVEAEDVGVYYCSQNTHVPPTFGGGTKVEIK
Response line: 0.048
